- TARGET_UNDER_TEST: SpCas9 (Streptococcus pyogenes serotype M1, UniProt Q99ZW2)
- Sequence (Q99ZW2 whole entry): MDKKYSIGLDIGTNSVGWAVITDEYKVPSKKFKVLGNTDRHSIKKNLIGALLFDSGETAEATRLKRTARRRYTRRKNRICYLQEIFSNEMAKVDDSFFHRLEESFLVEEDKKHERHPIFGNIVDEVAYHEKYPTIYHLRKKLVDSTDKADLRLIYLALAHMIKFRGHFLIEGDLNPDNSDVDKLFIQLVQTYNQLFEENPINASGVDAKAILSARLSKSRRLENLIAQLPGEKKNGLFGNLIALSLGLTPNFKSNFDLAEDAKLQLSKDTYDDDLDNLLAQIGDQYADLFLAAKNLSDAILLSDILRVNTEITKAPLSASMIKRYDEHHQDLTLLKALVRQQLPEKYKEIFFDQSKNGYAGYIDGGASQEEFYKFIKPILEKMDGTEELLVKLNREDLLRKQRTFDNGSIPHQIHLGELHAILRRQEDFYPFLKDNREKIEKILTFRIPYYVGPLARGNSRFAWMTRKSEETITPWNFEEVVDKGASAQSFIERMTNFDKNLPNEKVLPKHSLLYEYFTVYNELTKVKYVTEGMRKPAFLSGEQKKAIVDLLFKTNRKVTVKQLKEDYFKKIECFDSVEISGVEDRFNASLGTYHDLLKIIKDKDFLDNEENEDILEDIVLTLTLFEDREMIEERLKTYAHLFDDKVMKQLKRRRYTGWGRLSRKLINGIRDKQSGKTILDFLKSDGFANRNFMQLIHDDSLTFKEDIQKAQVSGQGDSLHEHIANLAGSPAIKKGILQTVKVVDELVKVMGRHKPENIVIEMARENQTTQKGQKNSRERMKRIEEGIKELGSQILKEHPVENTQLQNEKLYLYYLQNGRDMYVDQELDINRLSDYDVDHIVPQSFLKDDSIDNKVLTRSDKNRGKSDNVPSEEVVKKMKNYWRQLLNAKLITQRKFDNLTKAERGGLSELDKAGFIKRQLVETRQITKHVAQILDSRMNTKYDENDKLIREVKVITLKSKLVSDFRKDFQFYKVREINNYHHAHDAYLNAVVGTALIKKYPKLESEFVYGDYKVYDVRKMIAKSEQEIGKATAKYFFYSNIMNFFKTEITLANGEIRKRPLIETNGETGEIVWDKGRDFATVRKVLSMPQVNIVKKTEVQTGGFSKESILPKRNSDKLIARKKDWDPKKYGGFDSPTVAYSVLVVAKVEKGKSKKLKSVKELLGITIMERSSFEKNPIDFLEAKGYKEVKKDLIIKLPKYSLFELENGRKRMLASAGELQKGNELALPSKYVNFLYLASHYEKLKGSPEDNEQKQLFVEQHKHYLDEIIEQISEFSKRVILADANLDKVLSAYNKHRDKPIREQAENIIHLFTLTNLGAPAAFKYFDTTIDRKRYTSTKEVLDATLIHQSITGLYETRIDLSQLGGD
- ASSAY_SUMMARY: eGFP disruption assay, SpCas9, U2OS.eGFP.PEST cells
- Format: cell-based
- STUDY_CONDITIONS: replicate 2
MEASURE: Z socre Rep2

• Cl.Cl.Fc1cc(-c2cccc3ncc(-c4cnn(C5CCNCC5)c4)nc23)cc(F)c1CN1CCOCC1 = −5.44
• CS(=O)(=O)Nc1cnc(N2CCC(CCN3CCOCC3)CC2)c(C(=O)O)c1 = −1.00
• Nc1c(C(=O)N2CCCCC2)sc(=S)n1Cc1ccccc1 = −3.35
• CNS(=O)(=O)c1ccc2nc(NC(=O)c3ccc(N4C(=O)CCC4=O)cc3)sc2c1 = −3.72
• O=C(CCS(=O)(=O)c1ccc(Cl)cc1)Nc1nc(-c2ccccn2)cs1 = 4.86
• CCN1C(=O)c2cccc3cccc1c23 = 6.09
• C=Cc1ccc(CSC2=NS(=O)(=O)c3ccccc3N2)cc1 = −4.27
• Cc1ncc(-c2ccnc(Nc3ccc(S(C)(=O)=O)cc3)n2)n1C(C)C = −16.40
• CN(C)S(=O)(=O)Nc1ccc(N2CCC(CCN3CCOCC3)CC2)c(C(=O)O)c1 = −2.23
• COc1ccc(CNC(=O)c2ccc(Oc3ccnc(-c4cccc(F)c4)n3)cc2)c(OC)c1 = 1.78
• Cc1nn(-c2ccccc2)c(C)c1CCc1nn2c(-c3ccncc3)nnc2s1 = −1.05
• Cc1ccccc1OCc1nn2c(C(C)(C)C)nnc2s1 = 1.32
• Cc1ccc(C(C)NC(=O)c2cccc(Oc3cc(-c4ccccc4)ncn3)c2)cc1 (centres unmarked) = −0.70
• Clc1cccc(-c2nnc3sc(-c4ccc5ccccc5n4)nn23)c1 = −2.01
• CCN(Cc1ccccc1)c1ccc(NS(=O)(=O)c2ccc(OC)cc2)cc1C(=O)O = −0.96
• Nc1c(C(=O)N2CCCC2)sc(=S)n1Cc1ccccc1 = −1.37
• O=C(Nc1nc(-c2ccccc2)c(C(=O)c2ccccc2)s1)c1ccc2c(c1)OCCO2 = 2.13

* * *

- TARGET_UNDER_TEST: SpCas9 (Streptococcus pyogenes serotype M1)
- ASSAY_SUMMARY: Strand displacement assay (SDA) / cumulative activity assay (CAA), SpCas9 primary screen
- Format: biochemical
- STUDY_CONDITIONS: Primary Screen (150 min); average of replicates
MEASURE: Average Normalized Z score

* O=C1NC(=S)C(=C2CCCC2)S1 [Compound T5441809] | 0.26
* O=C(COC(=O)c1cc(O)c(O)c(O)c1)NC1CCCc2ccccc21 (stereo not drawn) [Compound T0515-9025] | 0.25
* O=C([O-])C(O)Cc1ccc(O)c(O)c1.[Na+] (stereo not drawn) [Compound S2401] | 0.25
* CCc1ccc(NC(=O)C(C#N)=Cc2cc(C#N)n(C)c2C)cc1 [Compound T5229649] | 0.07
* COc1ccc(-c2ccc3ncc4c(c3c2)n(-c2ccc(N3CCNCC3)c(C(F)(F)F)c2)c(=O)n4C)cn1.O=C(O)C=CC(=O)O [Compound S2749] | 0.34
* Cc1[nH]nc2ccc(-c3cncc(OCC(N)Cc4ccccc4)c3)cc12 (stereo not drawn) [Compound S2670] | 0.19
* O=C(O)c1cccc(NCC2SC(=S)NC2=O)c1 (stereo not drawn) [Compound T0514-3358] | 0.30
* Cl.NC(CO)C(=O)NNCc1ccc(O)c(O)c1O (stereo not drawn) [Compound S2453] | 0.26
* Oc1c(C(c2cccs2)N2CCCCC2)ccc2cccnc12 (stereo not drawn) [Compound T0515-1927] | 0.68
* Cl.Cl.Fc1cc(-c2cccc3ncc(-c4cnn(C5CCNCC5)c4)nc23)cc(F)c1CN1CCOCC1 [Compound S2686] | 0.36
* O=C(N/N=C/c1ccc(O)c(O)c1O)c1cccc(S(=O)(=O)Nc2ccccc2Cl)c1 [Compound T0506-5702] | 0.07
* O=C(O)CSc1nnc(NC2CCCCC2)s1 [Compound T5211003] | 0.05
* O=C(CSc1nccn1-c1cccc(F)c1)N1CCN(c2ccc(O)cc2)CC1 [Compound T5535170] | 0.31
* O=C(O)C(S)=C/C=C\c1ccccc1 [Compound T5441826] | 0.05
* CCCN(CCC)C1=CC(=O)C(C)=C(C)C1=O [Compound T0502-3042] | 0.31
* COc1ccc(-c2cc(N3CCN(C(=O)c4ccc(C(C)(C)C)cc4)CC3)ncn2)cc1 [Compound M130-0012] | 0.28
* CCC(CC)NC(=O)c1ccc2ncsc2c1 [Compound T5324509] | 0.10
* O=C(CSc1nnc2ccccn12)Nc1cc(C(=O)O)cc(C(=O)O)c1 [Compound T0513-0201] | 0.11
* CN1CCN(c2ccc(CNC(=O)Cn3ccc4c(SCc5ccccc5)nccc43)cc2)CC1 [Compound M056-0617] | 0.06
* Cc1ccc(Cl)cc1NC(=O)C1=NCCN1 [Compound T0519-9012] | 0.10
* CCN1C(=O)c2cccc3cccc1c23 [Compound T0503-6911] | 0.08
* Cc1c(P(=S)(N2CCOCC2)N2CCOCC2)cc(C#N)n1C [Compound T0503-9777] | 0.06
* NC1=C(c2nc3ccccc3s2)C(=O)CN1N=Cc1ccc(-c2ccc(S(=O)(=O)Nc3ncccn3)cc2)o1 [Compound T5371551] | 0.60
* Cc1sc2nc3n(c(=O)c2c1-c1ccccc1)CCC3 [Compound T0520-0462] | 0.04
* COc1ccc(-c2cc3c(C)nc(N)nc3n(C3CCC(OCCO)CC3)c2=O)cn1 (stereo not drawn) [Compound S2743] | 0.45
* CCOC(=O)C1CCCN(Cn2nnn(-c3ccc(OC)cc3)c2=S)C1 (stereo not drawn) [Compound T0513-0218] | 0.04
* O=C(Nc1nnc(C2CC2)s1)c1ccc2ncsc2c1 [Compound T0514-1693] | 0.07
* O=C(CCC(=O)c1ccc(F)cc1)OC1CCOC1=O (stereo not drawn) [Compound T0512-8635] | 0.04
* Cc1ccc(C(=O)n2ncn(C)c2=S)cc1 [Compound T0510-3476] | 0.41
* COc1ccc(C2CNC(=O)C2)cc1OC1CCCC1 (stereo not drawn) [Compound S2127] | 0.17
* CCOC(=O)C1=C(C)NN=C(Nc2cccc(C)c2C)S1 [Compound T0519-6400] | 0.06
* CCn1c(CCC(=O)O)nc2cc(S(N)(=O)=O)ccc21 [Compound T5380152] | 0.13
* Cn1cccc1/C=C\C(=O)O [Compound T5365031] | 0.28

* * *

- TARGET_UNDER_TEST: SpCas9 (Streptococcus pyogenes serotype M1, UniProt Q99ZW2)
- ASSAY_SUMMARY: eGFP disruption assay, SpCas9, U2OS.eGFP.PEST cells
- Assay type: cell-based
- STUDY_CONDITIONS: replicate 2
Numbered stars: 1 amine (or outer) side, 2 acyl side, 3 side chain; on linkers, the order of the positions; unused ones are H or OH. Bridge positions count the residues as written; N and C are the ends. Square brackets hold non-standard residues; d marks the D form. Peptide text beside a SMILES is read from it. I, II: the chains in the order shown. Actinocin(9to1) = Cc1c2oc3c(C)ccc(C(=O)[*:1])c3nc-2c(C(=O)[*:2])c(N)c1=O; NMeV = CN[C@H](C(=O)O)C(C)C; Sar = CNCC(=O)O
Label Yes when Z socre Rep2 >= -2; otherwise No.

- CC(C)CNC(=O)c1ccc(Oc2ccnc(-c3ccc(F)cc3)n2)cc1: Yes
- CCn1c(=O)c(C(=O)Nc2nccc(C)n2)c(O)c2ccccc21: No
- CCOC(=O)C1=C(C)NN=C(Nc2cccc(C)c2C)S1: Yes
- CCC(=O)Nc1ccccc1Sc1cc(C)nc2ncnn12: No
- NS(=O)(=O)c1ccc(CCNC(=O)C2=Cc3sc4c(c3CS2)CCCC4)cc1: Yes
- NC(=O)c1sc(=S)n2c1[nH]c(=O)c1ccc(Cl)cc12: No
- CCCCNC(=O)CN1CCN(c2ccc(C(=O)O)cc2NC(=O)c2ccccc2Cl)CC1: Yes
- Cc1cc(Sc2ccccc2NC(=O)c2cccc(F)c2)n2ncnc2n1: No
- O=C(CSc1nccn1-c1cccc(F)c1)N1CCN(c2ccc(O)cc2)CC1: Yes
- Brc1cccc(-c2nn3c(-c4ccccn4)nnc3s2)c1: Yes
- O=C(NCc1ccc(F)cc1)c1ccc(Oc2ccnc(-c3cccc(F)c3)n2)cc1: Yes
- O=C(O)c1cc(NS(=O)(=O)c2cc(F)ccc2F)cnc1N1CCC(N2CCCCC2)CC1: Yes
- CN(C)S(=O)(=O)Nc1ccc(N2CCC(C(N)=O)(N3CCCCC3)CC2)c(C(=O)O)c1: No
- O=C(O)c1cc(N2CCCC2)ccc1NC(=O)C1CCCC1: No
- CCC(C)NC(=O)c1cccc(Oc2cc(-c3ccccc3)ncn2)c1 (stereo not drawn): No
- CCCCN(CC)C(=O)C1CCCN(c2ccc(-c3ccccc3C)nn2)C1 (stereo not drawn): No
- CN(C)c1cccc(-c2nn3c(-c4ccc5ccccc5c4)nnc3s2)c1: No
- CNC(=O)c1sc(=S)n2c1[nH]c(=O)c1cc(Br)ccc12: No
- CN(C)S(=O)(=O)Nc1cnc(N2CCC(CCN3CCCCC3)CC2)c(C(=O)O)c1: No
- COc1ccc(Cc2nn3c(-c4cccnc4)nnc3s2)cc1OC: Yes
- COc1ccc(S(=O)(=O)CCC(=O)Nc2nc(-c3ccncc3)cs2)cc1: No
- Cc1ccc(-c2nn3c(-c4cccnc4)nnc3s2)cc1: No
- Cc1c2oc3c(C)ccc(C(=O)N[C@@H]4C(=O)N[C@H](C(C)C)C(=O)N5CCC[C@H]5C(=O)N(C)CC(=O)N(C)[C@@H](C(C)C)C(=O)O[C@@H]4C)c3nc-2c(C(=O)N[C@@H]2C(=O)N[C@H](C(C)C)C(=O)N3CCC[C@H]3C(=O)N(C)CC(=O)N(C)[C@@H](C(C)C)C(=O)O[C@@H]2C)c(N)c1=O [SAM001246846] (I: T[dV]P[Sar][NMeV] / II: T[dV]P[Sar][NMeV]; ester I:1-I:C, II:1-II:C; linker I:N-II:N via Actinocin(9to1)): No
- Fc1cccc(-c2nnc3sc(-c4ccc5ccccc5n4)nn23)c1: No
- COc1ccc(-c2ccc3ncc4c(c3c2)n(-c2ccc(N3CCNCC3)c(C(F)(F)F)c2)c(=O)n4C)cn1.O=C(O)C=CC(=O)O: No
- Cc1nn(-c2ccccc2)c(C)c1CCc1nnc2sc(-c3ccccc3F)nn12: Yes
- Brc1cccc(-c2nn3c(-c4cccnc4)nnc3s2)c1: Yes
- NC(=O)c1c(NC(=O)COCc2cc(-c3ccc4c(c3)OCO4)on2)sc2c1CCCC2: No
- COc1ccc(OC)c(CNC(=O)c2ccc(Oc3ccnc(-c4cccc(F)c4)n3)cc2)c1: Yes
